Where these numbers come from: PubChem BioAssay (NCI)

# Test system: NCI-H23 lung
# assay.method.text: NCI-60 one-dose screen, 48 h
# condition.description: 10 µM unless noted
The panel holds about 83,000 compounds, 20% with a hit somewhere; the sample as a whole holds those more often. Activity calls are given as the source filed them. How the source made its calls: active means growth percent below 10; inactive means the rest.
Possible outcomes: active, inactive

molecule | category
CCOC(=O)c1cc(-c2cccnc2)nc2c(Cl)cc(Cl)cc12 | inactive
CN1COc2ccc3ccccc3c2C1 | inactive
COC(=O)C[C@@H]1CC=CC(=O)/C1=C(O)/C=C/c1ccccc1 | active
Nc1ccc2c(c1)/C(=N/O)c1cc([N+](=O)[O-])ccc1-2 | inactive
Cc1cc(C(C)(C)C)cc(C)c1CC1=NCCN1 | inactive
C=C1CC[C@@H]2[C@](C)(COC(C)=O)[C@H](OC(C)=O)CC[C@@]2(C)[C@@H]1CC(Nc1ccc(S(=O)(=O)Nc2cc(C)on2)cc1)C1=CCOC1=O (some centres not stated) | inactive
COc1ccc2c(c1)C(=O)/C(=C/c1cccc(OCC(=O)c3ccccc3)c1)CC2 | inactive
CC(C)(C)c1ccc(S(=O)(=O)O)s1 | inactive
CCC1=C(c2ccc(OC)cc2)C(C)(C)Oc2cc(O)c(CN3CCCC3)cc21 | inactive
C=C(C[C@@](O)(C(=O)Oc1ccccc1)C(=O)C1CCCCC1)c1ccccc1 | inactive
CCC(C)CC(C)C(=O)c1c(O)ccn(OC)c1=O (configuration not stated) | inactive
COc1ccc(C2CC(c3cccc(Nc4ccnc5cc(Cl)ccc45)c3)=NN2C=O)cc1 (configuration not stated) | inactive
Oc1ccc(-c2nn(-c3ccccc3)cc2-c2nc3ccccc3s2)cc1 | inactive
COc1cc2c(cc1OCCCOc1ccc(-c3cc4ccccc4c4ccccc34)cc1)N=C[C@@H]1CCCN1C2=O | active
O=C1/C(=C/c2ccc([N+](=O)[O-])s2)Oc2ccc(Br)cc21 | active
Cc1nn(-c2ccccc2)c2nc3c(nc12)C(=O)CCC3 | inactive
O=C(Nc1ncc([N+](=O)[O-])s1)c1cccc([N+](=O)[O-])c1 | active
NC(=O)NN=C(C1CC1)C1CC1 | inactive
CC/C(=C\c1ccc(N(C)C)cc1)c1nc2ccccc2c(=O)[nH]1 | inactive
COc1cc(C(=O)/C=C/c2cccnc2Nc2ccccc2)cc(OC)c1OC | active
CCC[C@H](N[C@@H](C)C(=O)N1[C@H](C(=O)O)C[C@@H]2CCCC[C@@H]21)C(=O)OCC | inactive
Clc1ccc([C@@H]2C[C@@H]3Cc4cc(Br)c5ccccc5c4N2O3)c(Cl)c1 | inactive
COc1ccc2c3c(c(OCCCN(C)C)nc2c1)-c1ccc(Cl)cc1C3=O | active
COc1ccc(C2CC(c3ccc(OC)c(OC)c3)=NN2C(=O)c2cc(OC)c(OC)c(OC)c2)cc1 (configuration not stated) | inactive
COc1cc(Oc2cc(-c3cccnc3)ccc2NC(=O)Nc2ccc(F)cc2F)cc(OC)c1OC | inactive
CC(C)[C@]12O[C@H]1[C@@H]1O[C@]13[C@]1(O[C@H]1C[C@H]1C4=C(CC[C@@]13C)C(=O)OC4)[C@@H]2OC(=O)CN(C)C | active
CCN(CC)c1ccc(C(O)C2=CC(=O)c3ccccc3C2=O)cc1 (configuration not stated) | active
CC1=CC(=O)C(C(C)=Nc2ccccc2Cl)C(=O)O1 (configuration not stated) | inactive
CC(C)[C@H]1CC[C@H]2[C@@H](CC[C@H]3[C@](C)(CN)CCC[C@]23C)C1 | inactive
COC(=O)CCC1=C(C)/C(=C/c2[nH]c(-c3ccc[nH]3)cc2OC)N=C1C | active
CN(C)c1ccc(/C=C\c2ccnc3ccccc23)cc1 | inactive
Cc1nc(N)[nH]c(=O)c1C | inactive
O=C(Nc1nc(-c2ccccc2)cs1)c1cc(O)c(O)c(O)c1 | inactive
CC(C)(C)c1cc(O)c(O)c(C(C)(C)C)c1 | inactive
C/C(=N/N=C(N)N)c1ccc(N)cc1 | inactive
O=C1Cc2cc(CCN3CCN(CCOCCO)CC3)c(Cl)cc2N1Cc1ccc(-c2ccccc2-c2nn[nH]n2)cc1 | inactive
Cc1ccccc1-c1cc(Cc2ccccc2O)c(=O)[nH]n1 | inactive
C/C(=N\N1CC(=O)NC1=O)c1ccc([N+](=O)[O-])o1 | inactive
COC(=O)CCC1=C(C)C(C)=N/C1=C\c1[nH]c(-c2ccc[nH]2)cc1OC | active
COc1cccc(/C=C2\COc3ccc(O)c(O)c3C2=O)c1OC | inactive
O=C(Nc1ccc(Cl)cc1)Nc1ccc(Nc2nncc3ccccc23)cc1 | inactive
O=C(O)c1ccccc1C(=O)OC1CCCC2CCCC21 (configuration not stated) | inactive
